Cited source: patent US8697691B2

Recorded EC50 for the following compounds
Target: hM5 receptor (Homo sapiens, UniProt P08912)
Sequence (P08912 1-532): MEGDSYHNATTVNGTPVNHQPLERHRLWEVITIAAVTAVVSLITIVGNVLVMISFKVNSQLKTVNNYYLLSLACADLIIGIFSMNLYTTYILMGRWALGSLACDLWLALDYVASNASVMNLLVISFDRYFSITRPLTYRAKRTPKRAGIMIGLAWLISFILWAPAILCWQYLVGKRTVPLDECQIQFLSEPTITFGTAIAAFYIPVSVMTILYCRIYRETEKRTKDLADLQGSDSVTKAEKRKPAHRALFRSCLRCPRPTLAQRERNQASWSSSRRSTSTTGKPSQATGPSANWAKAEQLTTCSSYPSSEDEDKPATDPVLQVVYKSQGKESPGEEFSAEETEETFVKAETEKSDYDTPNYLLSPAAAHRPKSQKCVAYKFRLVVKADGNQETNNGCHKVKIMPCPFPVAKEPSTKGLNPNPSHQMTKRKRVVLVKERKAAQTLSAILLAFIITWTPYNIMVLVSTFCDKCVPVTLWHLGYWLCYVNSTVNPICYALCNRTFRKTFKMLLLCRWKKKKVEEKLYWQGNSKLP
Assay: Calcium mobilization assay, CHO cells stably expressing hM5

{"Smiles str": "CCOC(=O)N1[C@@H]2CC[C@H]1C[C@@H](NCCNC(=O)c1ccccc1)C2", "System name": "hM5 receptor (Homo sapiens, UniProt P08912)", "EC50": "~10 µM"}
{"Smiles str": "CCOC(=O)N1[C@@H]2CC[C@H]1C[C@H](NCCNC(=O)c1ccccc1)C2", "System name": "hM5 receptor (Homo sapiens, UniProt P08912)", "EC50": "> 10 µM"}

---

Biological target: rat M1 receptor (Rattus norvegicus, UniProt P08482)
Construct: host or cells: CHO-K1
Sequence (P08482 1-460): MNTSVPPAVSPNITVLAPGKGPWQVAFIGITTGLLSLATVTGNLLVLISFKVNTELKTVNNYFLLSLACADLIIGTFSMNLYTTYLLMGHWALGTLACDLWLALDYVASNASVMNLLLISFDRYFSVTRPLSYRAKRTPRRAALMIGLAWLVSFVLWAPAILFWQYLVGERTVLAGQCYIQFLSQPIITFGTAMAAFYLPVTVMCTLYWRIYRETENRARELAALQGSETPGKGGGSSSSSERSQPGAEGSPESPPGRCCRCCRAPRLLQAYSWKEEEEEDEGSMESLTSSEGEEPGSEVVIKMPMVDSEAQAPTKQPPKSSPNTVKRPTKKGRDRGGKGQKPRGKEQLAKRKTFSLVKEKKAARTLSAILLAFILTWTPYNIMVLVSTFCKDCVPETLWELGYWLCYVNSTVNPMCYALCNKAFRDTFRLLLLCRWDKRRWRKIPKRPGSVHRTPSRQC
Assay: Calcium mobilization assay, CHO-K1 cells stably expressing rat M1 (low throughput, Flexstation II)
Assay type: cell-based
Classify: 1 (yes) when EC50 is strictly less than 70 nM; 0 (no) when EC50 is not.

{"Molecule": "CCOC(=O)N1C2CCC1CC(NCCNC(=O)c1cccs1)C2 (stereo not drawn) [Example 1]", "Classification": "0 (no)"}
{"Molecule": "CCOC(=O)N1C2CCC1CC(NCCNC(=O)c1ccc(F)cc1Cl)C2 (stereo not drawn) [Example 7]", "Classification": "0 (no)"}
{"Molecule": "CCOC(=O)N1C2CCC1CC(NCCNC(=O)c1ccccc1)C2 (stereo not drawn) [Example 18]", "Classification": "1 (yes)"}
{"Molecule": "CCOC(=O)N1C2CCC1CC(NCCNC(=O)c1ccccc1C)C2 (stereo not drawn) [Example 3]", "Classification": "0 (no)"}

---

Target: human M1 receptor (Homo sapiens)
Construct: host or cells: CHO-K1
Sequence (P11229 whole entry): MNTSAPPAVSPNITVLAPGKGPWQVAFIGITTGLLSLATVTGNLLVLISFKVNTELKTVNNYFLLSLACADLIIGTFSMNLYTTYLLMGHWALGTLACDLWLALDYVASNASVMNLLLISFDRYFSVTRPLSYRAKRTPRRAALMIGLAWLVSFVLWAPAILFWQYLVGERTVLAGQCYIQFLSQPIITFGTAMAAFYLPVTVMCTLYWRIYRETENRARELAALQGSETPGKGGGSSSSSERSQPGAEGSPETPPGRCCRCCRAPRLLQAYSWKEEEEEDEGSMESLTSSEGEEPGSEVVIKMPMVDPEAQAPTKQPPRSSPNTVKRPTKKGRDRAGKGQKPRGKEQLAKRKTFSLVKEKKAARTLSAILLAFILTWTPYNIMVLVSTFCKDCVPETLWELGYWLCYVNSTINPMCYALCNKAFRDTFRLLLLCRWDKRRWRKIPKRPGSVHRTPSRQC
Test: Calcium mobilization assay, CHO-K1 cells stably expressing hM1 (high throughput, FDSS 6000)
Type: cell-based
Details: human M1, agonist-evoked calcium mobilization in CHO-K1 cells; read-out: Potency (EC50)
Excerpt: Chinese hamster ovary (CHO-K1) cells stably expressing rat (r)M1 were purchased from the American Type Culture Collection and cultured according to their indicated protocol. […]
pEC50: −log10 of the molar value.
Recorded pEC50 for the following compounds
Measurement name: pEC50

{"Smiles str": "CCOC(=O)N1[C@@H]2CC[C@H]1C[C@H](NCCNC(=O)C1CCCCC1)C2", "Measured number": 5.49}
{"Smiles str": "CCOC(=O)N1[C@@H]2CC[C@H]1C[C@H](NCCNC(=O)N1CCCCC1)C2", "Measured number": 6.15}
{"Smiles str": "CCOC(=O)N1[C@@H]2CC[C@H]1C[C@H](NCCNC(=O)c1ccc(F)c(F)c1)C2", "Measured number": 5.85}
{"Smiles str": "CCOC(=O)N1[C@@H]2CC[C@H]1C[C@H](NCCNC(=O)c1cc(F)cc(F)c1)C2", "Measured number": 5.59}

---

biological target: hM4 receptor (Homo sapiens, UniProt P08173); assay: Calcium mobilization assay, CHO-K1 cells stably expressing hM4-Gqi5
Sequence (P08173 whole entry): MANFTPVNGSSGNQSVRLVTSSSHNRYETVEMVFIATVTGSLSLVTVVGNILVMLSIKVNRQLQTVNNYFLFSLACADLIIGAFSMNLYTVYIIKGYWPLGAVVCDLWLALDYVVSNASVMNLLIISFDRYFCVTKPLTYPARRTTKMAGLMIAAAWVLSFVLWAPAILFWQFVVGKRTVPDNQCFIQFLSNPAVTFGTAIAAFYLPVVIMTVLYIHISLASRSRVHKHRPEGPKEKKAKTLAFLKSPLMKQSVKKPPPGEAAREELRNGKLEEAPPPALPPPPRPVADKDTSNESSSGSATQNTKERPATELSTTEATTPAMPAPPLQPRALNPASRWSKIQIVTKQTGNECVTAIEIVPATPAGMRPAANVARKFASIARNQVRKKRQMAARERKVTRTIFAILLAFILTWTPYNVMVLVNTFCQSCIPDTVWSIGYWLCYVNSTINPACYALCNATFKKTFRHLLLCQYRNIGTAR

{"Smiles str": "CCOC(=O)N1[C@@H]2CC[C@H]1C[C@H](NCCNC(=O)c1ccccc1)C2", "EC50": "> 10 µM"}
{"Smiles str": "CCOC(=O)N1[C@@H]2CC[C@H]1C[C@@H](NCCNC(=O)c1ccccc1)C2", "EC50": "~3 µM"}

---

Biological target: rat M1 receptor (Rattus norvegicus)
Construct: host or cells: CHO-K1
Sequence (P08482 1-460): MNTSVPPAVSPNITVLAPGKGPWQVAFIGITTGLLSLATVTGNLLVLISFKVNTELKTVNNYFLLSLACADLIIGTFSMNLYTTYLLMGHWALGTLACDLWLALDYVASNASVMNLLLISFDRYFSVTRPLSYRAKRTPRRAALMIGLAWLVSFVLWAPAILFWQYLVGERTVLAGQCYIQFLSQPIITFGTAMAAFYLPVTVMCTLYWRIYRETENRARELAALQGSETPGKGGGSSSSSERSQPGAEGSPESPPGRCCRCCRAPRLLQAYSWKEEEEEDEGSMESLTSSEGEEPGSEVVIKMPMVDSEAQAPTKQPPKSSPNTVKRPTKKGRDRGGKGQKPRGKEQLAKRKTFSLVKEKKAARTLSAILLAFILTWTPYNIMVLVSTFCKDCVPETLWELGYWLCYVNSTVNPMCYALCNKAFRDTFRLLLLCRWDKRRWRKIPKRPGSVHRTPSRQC
Assay: Calcium mobilization assay, CHO-K1 cells stably expressing rat M1 (low throughput, Flexstation II)
Assay type: cell-based
Conditions: CHO-K1, read-out: Efficacy (% Max ACh)
Classify: y when Emax is strictly less than 50%; n when Emax is not.

{"Compound": "CCOC(=O)N1C2CCC1CC(NCCNC(=O)Cc1ccccc1)C2 (stereo not shown)", "Classification": "y"}
{"Compound": "CCOC(=O)N1C2CCC1CC(NCCNC(=O)c1ccccc1C)C2 (stereo not shown)", "Classification": "n"}
{"Compound": "CCOC(=O)N1C2CCC1CC(NCCNC(=O)c1ccc(F)c(C(F)(F)F)c1)C2 (stereo not shown)", "Classification": "y"}
{"Compound": "CCOC(=O)N1C2CCC1CC(NCCNC(=O)c1cccc(OC)c1)C2 (stereo not shown)", "Classification": "n"}
{"Compound": "CCOC(=O)N1C2CCC1CC(NCCNC(=O)c1ccc(Cl)cc1)C2 (stereo not shown)", "Classification": "y"}
{"Compound": "CCOC(=O)N1C2CCC1CC(NCCNC(=O)c1ccccn1)C2 (stereo not shown)", "Classification": "y"}
{"Compound": "CCOC(=O)N1C2CCC1CC(NCCNC(=O)c1ccc(Cl)cc1F)C2 (stereo not shown)", "Classification": "y"}
{"Compound": "CCOC(=O)N1C2CCC1CC(NCCNC(=O)c1ccc(F)cc1Cl)C2 (stereo not shown)", "Classification": "n"}
{"Compound": "CCOC(=O)N1C2CCC1CC(NCCNC(=O)c1ccccc1F)C2 (stereo not shown)", "Classification": "n"}
{"Compound": "CCOC(=O)N1C2CCC1CC(NCCNC(=O)c1cccs1)C2 (stereo not shown)", "Classification": "n"}
{"Compound": "CCOC(=O)N1C2CCC1CC(NCCNC(=O)c1cccc(C)c1)C2 (stereo not shown)", "Classification": "n"}
{"Compound": "CCOC(=O)N1C2CCC1CC(NCCNC(=O)c1ccc(C)cc1)C2 (stereo not shown)", "Classification": "y"}
{"Compound": "CCOC(=O)N1C2CCC1CC(NCCNC(=O)c1ccc(F)cc1C(F)(F)F)C2 (stereo not shown)", "Classification": "y"}
{"Compound": "CCOC(=O)N1C2CCC1CC(NCCNC(=O)c1ccc(F)cc1F)C2 (stereo not shown)", "Classification": "n"}
{"Compound": "CCOC(=O)N1C2CCC1CC(NCCNC(=O)c1ccc3c(c1)CCO3)C2 (stereo not shown)", "Classification": "y"}
{"Compound": "CCOC(=O)N1C2CCC1CC(NCCNC(=O)c1ccccc1)C2 (stereo not shown)", "Classification": "n"}
{"Compound": "CCOC(=O)N1C2CCC1CC(NCCNC(=O)c1ccc(C)c(C)c1)C2 (stereo not shown)", "Classification": "y"}
{"Compound": "CCOC(=O)N1C2CCC1CC(NCCNC(=O)c1ccc(F)c(F)c1)C2 (stereo not shown)", "Classification": "n"}
{"Compound": "CCOC(=O)N1C2CCC1CC(NCCNC(=O)c1c(F)cccc1F)C2 (stereo not shown)", "Classification": "y"}
{"Compound": "CCOC(=O)N1C2CCC1CC(NCCNC(=O)c1ccccc1Cl)C2 (stereo not shown)", "Classification": "n"}
{"Compound": "CCOC(=O)N1C2CCC1CC(NCCNC(=O)c1ccc(F)c(OC)c1)C2 (stereo not shown)", "Classification": "y"}
{"Compound": "CCOC(=O)N1C2CCC1CC(NCCNC(=O)c1ccco1)C2 (stereo not shown)", "Classification": "y"}
